Data credit: patent EP2272817A1

biological target: recombinant human PAI-1 (Homo sapiens); experiment: biochemical; details: read-out: Inhibition Rate of PAI-1 Activity (%)
MEASUREMENT_NAME: inhibition at 5 µM (%)

Worked examples follow.
INSERT INTO measurements (structure_string, measurement_name, units_symbol, reading) VALUES
  ('Cc1cc(-c2ccc(OC(F)(F)F)cc2)ccc1N(Cc1ccc(C(C)(C)C)cc1)C(=O)C(=O)O', 'inhibition at 5 µM', '%', 33),
  ('CCCOc1ccc(N(Cc2ccccc2)C(=O)C(=O)O)cc1-c1ccc(OC(F)(F)F)cc1', 'inhibition at 5 µM', '%', 39);

(1) CSc1ccc(CN(C(=O)C(=O)O)c2ccc(-c3ccc(OC(F)(F)F)cc3)cc2)cc1
(2) CCCCCOc1ccc(-c2ccc(OC(F)(F)F)cc2)cc1N(Cc1ccccc1)C(=O)C(=O)O
Given the listed records, identify the one among 1 and 2 with higher inhibition at 5 µM. Write the label of whichever entry you select. 2
(2: 77%, 1: 14%)

====

Recorded measurements of inhibition at 10 µM, one per entry
target: recombinant human PAI-1 (Homo sapiens, UniProt P05121); experiment: biochemical; settings: read-out: Inhibition Rate of PAI-1 Activity (%), Compound Concentration 10µM
Sequence (P05121 24-402): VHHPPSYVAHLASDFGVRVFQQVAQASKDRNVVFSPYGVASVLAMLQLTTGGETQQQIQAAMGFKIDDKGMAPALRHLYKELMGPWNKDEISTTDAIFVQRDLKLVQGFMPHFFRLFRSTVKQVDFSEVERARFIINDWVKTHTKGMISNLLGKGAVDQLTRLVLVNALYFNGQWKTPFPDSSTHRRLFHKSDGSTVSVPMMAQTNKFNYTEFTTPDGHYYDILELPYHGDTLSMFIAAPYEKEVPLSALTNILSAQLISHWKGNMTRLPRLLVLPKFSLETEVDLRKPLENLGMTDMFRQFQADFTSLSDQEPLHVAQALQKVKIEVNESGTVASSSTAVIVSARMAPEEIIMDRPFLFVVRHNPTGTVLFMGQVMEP
Field: numeric (%). Do not append units.

INSERT INTO measurements (structure_string, target, units_symbol, reading) VALUES
  ('CC(C)(C)c1ccc(COc2ccc(-c3ccc(OC(F)(F)F)cc3)cc2N(Cc2ccccc2)C(=O)C(=O)O)cc1', 'recombinant human PAI-1 (Homo sapiens, UniProt P05121)', '%', 91),
  ('CC(C)(C)c1ccc(COc2cccc(Oc3ccc(OC(F)(F)F)cc3)c2CCC(=O)O)cc1', 'recombinant human PAI-1 (Homo sapiens, UniProt P05121)', '%', 80),
  ('CCCOc1ccc(-c2ccc(OC(F)(F)F)cc2)cc1N(Cc1ccc(C(C)(C)C)cc1)C(=O)C(=O)O', 'recombinant human PAI-1 (Homo sapiens, UniProt P05121)', '%', 91);

Identify inhibition at 10 µM associated with the molecule CCC(CC)Oc1ccc(-c2ccc(OC(F)(F)F)cc2)cc1N(Cc1ccc(C(C)(C)C)cc1)C(=O)C(=O)O 89

Identify inhibition at 10 µM associated with the molecule CC(C)(C)c1ccc(CN(C(=O)C(=O)O)c2ccc(-c3ccc(OC(F)(F)F)cc3)cc2)cc1 95

Identify inhibition at 10 µM associated with the molecule CC(C)(C)c1ccc(Oc2cccc(-c3ccc(OC(F)(F)F)cc3)c2CCC(=O)O)cc1 90

Identify inhibition at 10 µM associated with the molecule CC(C)(C)c1ccc(CN(C(=O)C(=O)O)c2ccc(Cl)cc2-c2ccc(OC(F)(F)F)cc2)cc1 95

Identify inhibition at 10 µM associated with the molecule CC(C)(C)c1ccc(CN(C(=O)C(=O)O)c2cc(-c3ccc(OC(F)(F)F)cc3)cc(C(F)(F)F)c2)cc1 59

Identify inhibition at 10 µM associated with the molecule CCCCCOc1ccc(-c2ccc(OC(F)(F)F)cc2)cc1N(CCCCc1ccccc1)C(=O)C(=O)O 92

Identify inhibition at 10 µM associated with the molecule O=C(O)CCc1c(Oc2ccc(OC(F)(F)F)cc2)cccc1Oc1ccc(OC(F)(F)F)cc1 84

Identify inhibition at 10 µM associated with the molecule CC(C)(C)c1ccc(CN(C(=O)C(=O)O)c2cccc(-c3ccc(OC(F)(F)F)cc3)c2)cc1 96

Identify inhibition at 10 µM associated with the molecule CC(C)(C)c1ccc(COc2cc(Oc3ccc(OC(F)(F)F)cc3)ccc2CCC(=O)O)cc1 60

Identify inhibition at 10 µM associated with the molecule CCN(CC)c1ccc(N(Cc2ccc(C(C)(C)C)cc2)C(=O)C(=O)O)c(-c2ccc(OC(F)(F)F)cc2)c1 98

Identify inhibition at 10 µM associated with the molecule CC(C)(C)c1ccc(CN(C(=O)C(=O)O)c2ccc(Cl)c(-c3ccc(OC(F)(F)F)cc3)c2)cc1 91

Identify inhibition at 10 µM associated with the molecule CC(C)(C)c1ccc(COc2c(OCC(=O)O)cccc2-c2ccc(OC(F)(F)F)cc2)cc1 91

====

biological target: recombinant human PAI-1 (Homo sapiens, UniProt P05121); experiment: biochemical; conditions: read-out: Inhibition Rate of PAI-1 Activity (%), Compound Concentration 5µM
Recorded measurements of inhibition at 5 µM, one per entry
Field: numeric (%). Do not append units.

Worked examples follow.
INSERT INTO results (structure_string, measurement_name, units_symbol, reading) VALUES
  ('CC(C)(C)c1ccc(COc2c(OCC(=O)O)cccc2-c2ccc(OC(F)(F)F)cc2)cc1', 'inhibition at 5 µM', '%', 63),
  ('CC(C)(C)c1ccc(CN(C(=O)C(=O)O)c2ccc(Cl)c(-c3ccc(OC(F)(F)F)cc3)c2)cc1', 'inhibition at 5 µM', '%', 76),
  ('CCCCOc1ccc(-c2ccc(OC(F)(F)F)cc2)cc1N(Cc1ccc(C(C)(C)C)cc1)C(=O)C(=O)O', 'inhibition at 5 µM', '%', 87),
  ('CCCCCOc1ccc(-c2ccc(OC(F)(F)F)cc2)cc1N(CCCCc1ccccc1)C(=O)C(=O)O', 'inhibition at 5 µM', '%', 85);

Let us examine a further case.
GET inhibition at 5 µM | system: recombinant human PAI-1 (Homo sapiens, UniProt P05121) | item: CCCCOc1ccc(N(Cc2ccc(C(C)(C)C)cc2)C(=O)C(=O)O)cc1-c1ccc(OC(F)(F)F)cc1 81

====

molecular target: recombinant human PAI-1 (Homo sapiens, UniProt P05121); assay: Test Example 2: Human PAI-1 Inhibitory Activity (pH 7.4 HEPES buffer, 10 minutes incubation with two-chain tPA); assay type: biochemical; design: purchased Molecular Innovations, Inc; conditions: read-out: Inhibition Rate of PAI-1 Activity (%)
MEASUREMENT_NAME: inhibition at 1 µM (%)

INSERT INTO assay_data (compound, measurement_name, units_symbol, reading) VALUES
  ('CCCCCOc1ccc(-c2ccc(OC(F)(F)F)cc2)cc1N(CCCCc1ccccc1)C(=O)C(=O)O [Compound 226]', 'inhibition at 1 µM', '%', 89),
  ('CC(C)(C)c1ccc(Oc2ccc(-c3cccc(C(F)(F)F)c3)cc2OCC(=O)O)cc1 [Compound 314]', 'inhibition at 1 µM', '%', 22),
  ('CC(C)c1ccc(Oc2ccc(CCC(=O)O)c(Oc3ccc(C(C)C)cc3)c2)cc1 [Compound 73]', 'inhibition at 1 µM', '%', 27),
  ('CC(C)(C)c1cccc(Oc2cc(-c3ccc(OC(F)(F)F)cc3)ccc2/C=C/C(=O)O)c1 [Compound 335]', 'inhibition at 1 µM', '%', 80),
  ('CCCCC(Oc1ccc(-c2ccc(OC(F)(F)F)cc2)cc1OCCCCc1ccccc1)C(=O)O (stereo not shown) [Compound 311]', 'inhibition at 1 µM', '%', 77),
  ('CCCCC(Oc1cc(Oc2ccc(OC(F)(F)F)cc2)ccc1Oc1ccc(C(C)(C)C)cc1)C(=O)O (stereo not shown) [Compound 312]', 'inhibition at 1 µM', '%', 87),
  ('CC(C)(C)c1ccc(Oc2cc(-c3ccc(C(F)(F)F)cc3)ccc2OCC(=O)O)cc1 [Compound 330]', 'inhibition at 1 µM', '%', 47),
  ('O=C(O)C(=O)N(CCCCc1ccccc1)c1cc(-c2ccc(OC(F)(F)F)cc2)ccc1Oc1ccccc1 [Compound 638]', 'inhibition at 1 µM', '%', 57),
  ('CC(C)(Oc1cccc(-c2ccc(OC(F)(F)F)cc2)c1OCc1ccc(C(C)(C)C)cc1)C(=O)O [Compound 118]', 'inhibition at 1 µM', '%', 49),
  ('O=C(O)C(=O)N(CCCCc1ccccc1)c1cc(-c2ccc(OC(F)(F)F)cc2)ccc1OC1CCCCC1 [Compound 368]', 'inhibition at 1 µM', '%', 95),
  ('CCCCCCC(Oc1cc(-c2ccc(OC(F)(F)F)cc2)ccc1Oc1ccc(C(F)(F)F)cc1)C(=O)O (stereo not shown) [Compound 327]', 'inhibition at 1 µM', '%', 94),
  ('CCCCC(Oc1cc(-c2ccc(OC(F)(F)F)cc2)ccc1OCCCCc1ccccc1)C(=O)O (stereo not shown) [Compound 306]', 'inhibition at 1 µM', '%', 72),
  ('CCCCCCCOc1ccc(-c2ccc(OC(F)(F)F)cc2)cc1N(CCCCc1ccccc1)C(=O)C(=O)O [Compound 352]', 'inhibition at 1 µM', '%', 72),
  ('CCCCC(Oc1cc(-c2cccc(C)c2)ccc1Oc1ccc(C(C)(C)C)cc1)C(=O)O (stereo not shown) [Compound 317]', 'inhibition at 1 µM', '%', 79);

====

biological target: recombinant human PAI-1 (Homo sapiens, UniProt P05121); experiment: biochemical; details: read-out: Inhibition Rate of PAI-1 Activity (%)
MEASUREMENT_NAME: inhibition at 5 µM (%)

Worked examples follow.
INSERT INTO assay_data (structure_string, measurement_name, reading) VALUES
  ('CC(C)Oc1ccc(N(Cc2ccc(C(C)(C)C)cc2)C(=O)C(=O)O)cc1-c1ccc(OC(F)(F)F)cc1', 'inhibition at 5 µM', 87),
  ('CC(C)(C)c1ccc(CN(C(=O)C(=O)O)c2cc(-c3ccccc3)cc(C(F)(F)F)c2)cc1', 'inhibition at 5 µM', 6),
  ('CC(C)(C)c1ccc(COc2cccc(Oc3ccc(OC(F)(F)F)cc3)c2/C=C/C(=O)O)cc1', 'inhibition at 5 µM', 40),
  ('CC(C)(C)c1ccc(Oc2cc(-c3ccc(OC(F)(F)F)cc3)ccc2OC(F)(F)C(=O)O)cc1', 'inhibition at 5 µM', 59),
  ('CC(C)(C)c1ccc(Oc2cc(Oc3ccc(OC(F)(F)F)cc3)ccc2CCC(=O)O)cc1', 'inhibition at 5 µM', 42);

(A) CC(C)(C)c1ccc(COc2cc(-c3ccc(OC(F)(F)F)cc3)ccc2CCC(=O)O)cc1
(B) Cc1c(-c2ccc(OC(F)(F)F)cc2)cccc1N(Cc1ccc(C(C)(C)C)cc1)C(=O)C(=O)O
Form: Entry with minimum inhibition at 5 µM (choose one): A / B Write the label of whichever entry you select. A
